As shown below, each of these binders has a reported In Vitro Score value.
- TEST SYSTEM: T1, HLA-A*03:01 (human)
- T1 construct: recombinant MHC class I molecule incubated with the synthetic peptide (REVEAL, ProImmune)
- ASSAY COMMENT: REVEAL MHC-peptide binding assay, recombinant HLA

Study these solved cases before continuing.
FWVQRGRKK (synthetic 9-mer variant; the entry already carries the change) | 6.4 % of positive control peptide
FWVSRGRKK (synthetic 9-mer variant; the entry already carries the change) | 2.9 % of positive control peptide
FWVKRGSKK (synthetic 9-mer variant; the entry already carries the change) | 5.9 % of positive control peptide

Record FWVQRGNKK (synthetic 9-mer variant; the entry already carries the changes) . Reported In Vitro Score: 1.3 % of positive control peptide
